B1: Far upstream element-binding protein 2, residues 142 to 214; numbered along this chain, Q92945 (parent)
chain: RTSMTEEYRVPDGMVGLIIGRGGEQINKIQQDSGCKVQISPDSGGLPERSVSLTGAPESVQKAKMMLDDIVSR

Variants of: B1
measurement notes: abundance fitness (aPCA) (normalised: wild type 0, dead -1); higher = more abundant; growth selection in yeast, the domain comes from the species named
experimental parameters: Homo sapiens
Each entry gets Not met if its abundance fitness stays under -0.3, and Met if its abundance fitness is -0.3 or above.

Use the examples below as a reference point.
RTSMTEEYRVPDGMVGLIIGRGGEQINKIQQDSGCKVQISPDSGGLPERIVSLTGAPESVQKAKMMLDDIVSR :: Met
RTSMTEEYRVPDGMVGLIIGRGGEQINKIQQDSGCKVQISPDSGGLPERSVSLTGAPESVQKAKMMLDDLVSR :: Met
RTSMTEEYRVPDGMVGLIIGRGGEQINKIQQDSGCSVQISPDSGGLPERSVSLTGAPESVQKAKMMLDDIVSR :: Met
RTSMTEEYRVPDGMVGLIIGRGGEQINKIQQDSGCKVQISPDSGGLPERSVSLTGAPESAQKAKMMLDDIVSR :: Not met
RTSMTEEYRVPDGMVGLIIGRGGEQINKIQQDSGCKQQISPDSGGLPERSVSLTGAPESVQKAKMMLDDIVSR :: Not met

// query Does RTSMTEEYRVPDGMVGLIIGRGGEQINKIQQDSGCKVQISPDSGGLPERSVSLTGAPESVQSAKMMLDDIVSR have a reported abundance fitness of at least -0.3?
// result Met

// query And then RTSMTEEYRVPDGMVGLIIGYGGEQINKIQQDSGCKVQISPDSGGLPERSVSLTGAPESVQKAKMMLDDIVSR , what is it?
// result Met

// query And then RTSMTEEYRVPDGMVGLIIGRGGEQINKIQQDSGEKVQISPDSGGLPERSVSLTGAPESVQKAKMMLDDIVSR , what is it?
// result Not met

// query And then RTSMTEEYRVPDGMVGLIIGRGVEQINKIQQDSGCKVQISPDSGGLPERSVSLTGAPESVQKAKMMLDDIVSR , what is it?
// result Met

// query And then RTSMTEEYRVPDGMVGLIIGRGGEQINKIQQDSGCKVQISPDSGGLPERSVSLTGAPESVQKAKMMSDDIVSR , what is it?
// result Not met

// query And then RTSMTEEYRVPDGMVGLIIGRGGEQINKIQQDSGCKVQISPDSGGLPERSVSLTGAPESVQKAKMMLGDIVSR , what is it?
// result Met

// query And then RTSMTEEYRVPDGMVGLIIGRGGEQINKICQDSGCKVQISPDSGGLPERSVSLTGAPESVQKAKMMLDDIVSR , what is it?
// result Met
